// data source = ChEMBL document CHEMBL1131800

Target: Carbonic anhydrase 1 (Homo sapiens)
Assay: In vitro binding affinity against human carbonic anhydrase I (hCA-I human cloned isozyme).
Entries are grouped by Ka into these classes: lower bin (below 0.006 µM), middle bin (0.006 µM to below 0.1 µM), upper bin (0.1 µM or more)

Input line: Class for "O=C(O)c1ccccc1S(=O)(=O)NCCc1c[nH]cn1" ?
Output line: middle bin

Input line: Another compound to check: "O=S(=O)(Cc1ccccc1)NCCc1c[nH]cn1"
Output line: upper bin

Input line: "O=C(NCCc1c[nH]cn1)NS(=O)(=O)c1ccc(Cl)cc1" ?
Output line: lower bin

Input line: // next record "Cc1ccc(S(=O)(=O)NC(=O)NCCc2c[nH]cn2)cc1"
Output line: lower bin

Input line: Now consider "O=S(=O)(NCCc1c[nH]cn1)c1ccc2ccccc2c1" and answer again.
Output line: upper bin

Input line: Field entry: "O=C(O)c1cccc(S(=O)(=O)NCCc2c[nH]cn2)c1"
Output line: middle bin

Input line: What would you report for "Nc1ccc(S(=O)(=O)NCCc2c[nH]cn2)cc1" ?
Output line: upper bin

Input line: Then what about the compound "CN(C)S(=O)(=O)NCCc1c[nH]cn1" ?
Output line: upper bin

Input line: Quick one: "O=C(NCCc1c[nH]cn1)NS(=O)(=O)c1ccc(F)cc1"
Output line: lower bin
